Source listed as patent US20250215412A1.

- TARGET_UNDER_TEST: T1, Chryseobacterium sp-62563 deamidase polypeptide (second polypeptide, deamidase domain), wildtype (Chryseobacterium sp-62563)
- T1 sequence: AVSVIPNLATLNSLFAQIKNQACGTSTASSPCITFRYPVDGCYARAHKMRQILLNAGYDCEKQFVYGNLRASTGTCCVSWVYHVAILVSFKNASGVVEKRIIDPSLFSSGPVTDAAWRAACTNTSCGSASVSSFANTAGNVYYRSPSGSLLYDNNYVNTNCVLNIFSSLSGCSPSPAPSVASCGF
- ASSAY_REMARKS: cell-based or functional assay
# Relative activity of maturated deamidase (% initial rate) values compiled below
Write no unit; give the number alone.

Q) Reported Relative activity of maturated deamidase (% initial rate) for Chryseobacterium sp-62563 propeptide F73T (protein) NQDPNLVAKESNETAMKDFGKTVPVGIEKEDGKFKISFMVTAQPYEIKDSKENAAYISMIKTAVENETPIHVTLKANTNEIAKVDKATDDDIRYFKSVFTKEVKEENRK : what is it?
A) 42

Q) # iterate: Chryseobacterium sp-62563 propeptide P69T (protein) NQDPNLVAKESNETAMKDFGKTVPVGIEKEDGKFKISFMVTAQPYEIKDSKENAAYISMIKTAVENETTIHVFLKANTNEIAKVDKATDDDIRYFKSVFTKEVKEENRK
A) 33
